Tested on: SF-295 CNS
method-description: NCI-60 one-dose screen, 48 h
setup-conditions: 10 µM unless noted
The panel holds about 83,000 compounds, 20% with a hit somewhere; the sample as a whole holds those more often. The source made the active and inactive calls. The calls were made as follows: active = growth percent below 10; inactive = the rest.
Outcome codes: 1 for active, 0 for inactive

| compound | assigned-label |
| --- | --- |
| Cc1ccc(Cc2cnc(NC(=O)c3cc(C)oc3C)s2)cc1 | 0 |
| Cc1ccc(-c2nc([P+](c3ccccc3)(c3ccccc3)c3ccccc3)c(Nc3ccccc3)o2)cc1 | 1 |
| COc1ccc(CCNC(=O)COc2cc3c(Nc4ccc(F)c(Cl)c4)ncnc3cc2OC)cc1OC | 0 |
| N#CC1=C(N)Oc2c(sc3c(Br)cccc23)C1c1ccccn1 (stereo not drawn) | 0 |
| CC(Sc1ccccc1)C(=O)O (stereo not drawn) | 0 |
| CC12OC(CC(O)C1O)n1c3ccccc3c3c4c(c5c6ccccc6n2c5c31)C(=O)N(CCN1CCOCC1)C4=O (stereo not drawn) | 1 |
| OCCN1CCN(c2cc(-c3cccc(OC(F)(F)F)c3)nc3ccc(N4CCCC4)cc23)CC1 | 0 |
| C=C(C)[C@@H]1CC[C@]2(C)[C@H](CC(=O)N[C@H]3[C@@H]4C[C@](C)(C(=O)OC)CC[C@]4(C)CC[C@]32C)[C@@]1(C)CCC#N | 0 |
| NS(=O)(=O)OCC1OC(n2cnc3cncnc32)C(O)C1O (stereo not drawn) | 0 |
| CCCCCCCCn1ccc2cc(NC(=O)CN3CCN(c4nc(C)cc(N5CCCCC5)n4)CC3)ccc21 | 0 |
| COc1cccc(C2C(C#N)=C(N)Oc3cc(OCCCCCC[P+](c4ccccc4)(c4ccccc4)c4ccccc4)ccc32)c1 (stereo not drawn) | 1 |
| N#Cc1c(-c2cccc(F)c2)cc(-c2cccnc2)[nH]c1=O | 0 |
| O=C(c1ccc(Nc2nccc(NCCCNc3ccnc4cc(Cl)ccc34)n2)cc1)N1CCCCC1 | 0 |
| Cc1ccc(S(=O)(=O)OC[C@@]2(C)CC[C@]3(C)CC[C@]4(C)C(=C3C2)C=C[C@@H]2[C@@]3(C)CCCNC(C)(C)[C@@H]3CC[C@]24C)cc1 | 0 |
| Clc1ccc(Nc2nc(Nc3ccc(Cl)cc3)nc(Nc3ccc(-c4cc(-c5cccc(Cl)c5)on4)cc3)n2)cc1 | 0 |
| Cn1cc(-c2csc(-c3cn(CCOC(N)=O)c4ccccc34)n2)c2cccnc21 | 0 |
| O=C(/C=C/C12c3ccccc3C(c3ccccc31)C1C(=O)NC(=O)C12)c1ccncc1 (stereo not drawn) | 0 |
| Cc1ccc(-c2nc3nc(-c4ccccc4)nc(N4CCN(S(=O)(=O)c5ccccc5)CC4)c3o2)cc1 | 0 |
